molecular target: HLA-A*66:01; test: IEDB peptide-MHC binding, purified MHC/competitive/fluorescence; filed as Kd, often an IC50 or EC50 that approximates it; bounds were set here for any values at or beyond the usual limits of such assays; conditions: source organism: Vibrio parahaemolyticus AQ3810
pKd: −log10 of the molar value.

{"columns": ["SEQUENCE_ENTRY", "pKd"],
 "data": [
  ["HQFTSNPEV", "≤ 5.30"]
]}

----------
target: HLA-A*03:01; assay: IEDB peptide-MHC binding, purified MHC/competitive/fluorescence; bounds were set here for any values at or beyond the usual limits of such assays; settings: source organism: Vaccinia virus Copenhagen

{"columns": ["SEQUENCE_ENTRY", "COMPARISON_SIGN", "IC50 [µM]"],
 "data": [
  ["ANCSSISIK", "=", 42.4],
  ["ITFALKKLI", "=", 60.8],
  ["LSVETITEK", "≥", 101]
]}

----------
biological target: HLA-B*15:01; experiment: IEDB peptide-MHC binding, purified MHC/competitive/fluorescence; filed as Kd, often an IC50 or EC50 that approximates it; bounds were set here for any values at or beyond the usual limits of such assays; conditions: source organism: Brucella abortus S19
pKd: −log10 of the molar value.

{"columns": ["SEQUENCE_ENTRY", "MEASURED_TARGET", "pKd"],
 "data": [
  ["YWMGGTTYF", "HLA-B*15:01", 5.98]
]}

----------
Let's look at some sequences and their measured Kd.
biological target: HLA-A*02:16; test: IEDB peptide-MHC binding, purified MHC/competitive/fluorescence; filed as Kd, often an IC50 or EC50 that approximates it; bounds were set here for any values at or beyond the usual limits of such assays; details: source organism: Giardia lamblia ATCC 50803
OBSERVATION_TYPE: Kd (nM)

{"columns": ["SEQUENCE_ENTRY", "COMPARISON_SIGN", "TEST_RESULT"],
 "data": [
  ["TEDDWITYI", "=", 402],
  ["NAMGADYYA", "≥", 20000]
]}

----------
biological target: HLA-A*03:01; assay: IEDB peptide-MHC binding, purified MHC/competitive/fluorescence; bounds were set here for any values at or beyond the usual limits of such assays; conditions: source organism: Zaire ebolavirus
pIC50: −log10 of the molar value.
OBSERVATION_TYPE: pIC50

{"columns": ["SEQUENCE_ENTRY", "OBSERVATION_TYPE", "COMPARISON_SIGN", "TEST_RESULT"],
 "data": [
  ["LRTFSILNR", "pIC50", "≤", 3.96],
  ["QIIHDFVDK", "pIC50", "≤", 4.01],
  ["GIRGFPRCR", "pIC50", "=", 5.98],
  ["TNAMVTLRK", "pIC50", "=", 5.19],
  ["VLYYHMMKD", "pIC50", "=", 4.58],
  ["KILMNFHQK", "pIC50", "=", 5.48],
  ["NRSTKGGQQ", "pIC50", "≤", 3.54],
  ["AALSSLAKH", "pIC50", "≤", 4.03]
]}

----------
target: HLA-C*15:02; test: IEDB peptide-MHC binding, purified MHC/direct/fluorescence; filed as Kd, often an IC50 or EC50 that approximates it; bounds were set here for any values at or beyond the usual limits of such assays; details: source organism: Canarypox virus

{"columns": ["SEQUENCE_ENTRY", "Kd"],
 "data": [
  ["YIIPCILIL", "≥ 20 µM"]
]}

----------
biological target: HLA-A*24:02; assay: IEDB peptide-MHC binding, purified MHC/competitive/fluorescence; bounds were set here for any values at or beyond the usual limits of such assays; details: source organism: Sudan ebolavirus
pIC50: −log10 of the molar value.

{"columns": ["SEQUENCE_ENTRY", "pIC50"],
 "data": [
  ["YLEYEIENF", 4.76],
  ["FLFQLNDTI", 6.06],
  ["SNTTGRLIW", 5.44]
]}

----------
target: HLA-B*15:01; test: IEDB peptide-MHC binding, purified MHC/competitive/fluorescence; bounds were set here for any values at or beyond the usual limits of such assays; conditions: source organism: Variola virus
OBSERVATION_TYPE: IC50 (µM)

{"columns": ["SEQUENCE_ENTRY", "UNIT_SYMBOL", "TEST_RESULT"],
 "data": [
  ["LSLTKLFSY", "µM", 15.5]
]}

----------
Let's look at some sequences and their measured Kd.
target: HLA-A*11:01; assay: IEDB peptide-MHC binding, purified MHC/direct/fluorescence; filed as Kd, often an IC50 or EC50 that approximates it; bounds were set here for any values at or beyond the usual limits of such assays; conditions: source organism: Mycobacterium tuberculosis

{"columns": ["SEQUENCE_ENTRY", "MEASURED_TARGET", "COMPARISON_SIGN", "Kd (nM)"],
 "data": [
  ["AVFLSYIGY", "HLA-A*11:01", "=", 1560],
  ["ATADLELAY", "HLA-A*11:01", "=", 10.5],
  ["RLNFFTPTK", "HLA-A*11:01", "=", 3.1],
  ["GPAGYTAAL", "HLA-A*11:01", "≥", 20000]
]}

----------
target: HLA-A*02:01; test: IEDB peptide-MHC binding, purified MHC/direct/fluorescence; filed as Kd, often an IC50 or EC50 that approximates it; bounds were set here for any values at or beyond the usual limits of such assays; details: source organism: Vibrio parahaemolyticus AQ3810
OBSERVATION_TYPE: Kd (nM)

{"columns": ["SEQUENCE_ENTRY", "MEASURED_TARGET", "TEST_RESULT"],
 "data": [
  ["HQFTSNPEV", "HLA-A*02:01", 4]
]}

----------
biological target: HLA-A*02:06; test: IEDB peptide-MHC binding, purified MHC/competitive/radioactivity; filed as Kd, often an IC50 or EC50 that approximates it; bounds were set here for any values at or beyond the usual limits of such assays; conditions: source organism: Trypanosoma cruzi
pKd: −log10 of the molar value.

{"columns": ["SEQUENCE_ENTRY", "pKd"],
 "data": [
  ["LLGLWGTAAL", 5.90]
]}

----------
molecular target: HLA-B*48:01; assay: IEDB peptide-MHC binding, purified MHC/direct/fluorescence; filed as Kd, often an IC50 or EC50 that approximates it; bounds were set here for any values at or beyond the usual limits of such assays; conditions: source organism: Mycobacterium tuberculosis C

{"columns": ["SEQUENCE_ENTRY", "Kd"],
 "data": [
  ["TPKIRFWHV", "≥ 20 µM"]
]}

----------
Let's look at some sequences and their measured Kd.
target: HLA-B*51:01; test: IEDB peptide-MHC binding, purified MHC/competitive/radioactivity; filed as Kd, often an IC50 or EC50 that approximates it; bounds were set here for any values at or beyond the usual limits of such assays; details: source organism: Vaccinia virus WR
OBSERVATION_TYPE: Kd (nM)

{"columns": ["SEQUENCE_ENTRY", "UNIT_SYMBOL", "COMPARISON_SIGN", "TEST_RESULT"],
 "data": [
  ["FPANINDKQI", "nM", "=", 145],
  ["MPEKRNVVVV", "nM", "=", 2090],
  ["KPESRPFDLI", "nM", "≥", 69600],
  ["IPDELIDVL", "nM", "=", 2180],
  ["PPFTQHLLNI", "nM", "=", 12500],
  ["MPVETLFGSY", "nM", "≥", 69600],
  ["MTIREFPRK", "nM", "≥", 77500],
  ["LPMIIGEPI", "nM", "=", 1.17]
]}

----------
biological target: HLA-B*44:02; assay: IEDB peptide-MHC binding, purified MHC/direct/fluorescence; filed as Kd, often an IC50 or EC50 that approximates it; bounds were set here for any values at or beyond the usual limits of such assays; details: source organism: Influenza A virus (A/swine/Korea/S190/2004(H9N2))
pKd: −log10 of the molar value.

{"columns": ["SEQUENCE_ENTRY", "MEASURED_TARGET", "pKd"],
 "data": [
  ["ATTHSWIPK", "HLA-B*44:02", "≤ 4.70"]
]}

----------
molecular target: HLA-A*03:01; assay: IEDB peptide-MHC binding, purified MHC/direct/fluorescence; filed as Kd, often an IC50 or EC50 that approximates it; bounds were set here for any values at or beyond the usual limits of such assays; settings: source organism: Vibrio vulnificus
pKd: −log10 of the molar value.

{"columns": ["SEQUENCE_ENTRY", "MEASURED_TARGET", "pKd"],
 "data": [
  ["KVMALPIPH", "HLA-A*03:01", 6.76]
]}

Reference source: the Immune Epitope Database (IEDB)
